Biological target: furin, P09958;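 further: purified furin at 1:10 enzyme:substrate in 50 mM HEPES pH 7.5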
Sequence (P09958 whole entry): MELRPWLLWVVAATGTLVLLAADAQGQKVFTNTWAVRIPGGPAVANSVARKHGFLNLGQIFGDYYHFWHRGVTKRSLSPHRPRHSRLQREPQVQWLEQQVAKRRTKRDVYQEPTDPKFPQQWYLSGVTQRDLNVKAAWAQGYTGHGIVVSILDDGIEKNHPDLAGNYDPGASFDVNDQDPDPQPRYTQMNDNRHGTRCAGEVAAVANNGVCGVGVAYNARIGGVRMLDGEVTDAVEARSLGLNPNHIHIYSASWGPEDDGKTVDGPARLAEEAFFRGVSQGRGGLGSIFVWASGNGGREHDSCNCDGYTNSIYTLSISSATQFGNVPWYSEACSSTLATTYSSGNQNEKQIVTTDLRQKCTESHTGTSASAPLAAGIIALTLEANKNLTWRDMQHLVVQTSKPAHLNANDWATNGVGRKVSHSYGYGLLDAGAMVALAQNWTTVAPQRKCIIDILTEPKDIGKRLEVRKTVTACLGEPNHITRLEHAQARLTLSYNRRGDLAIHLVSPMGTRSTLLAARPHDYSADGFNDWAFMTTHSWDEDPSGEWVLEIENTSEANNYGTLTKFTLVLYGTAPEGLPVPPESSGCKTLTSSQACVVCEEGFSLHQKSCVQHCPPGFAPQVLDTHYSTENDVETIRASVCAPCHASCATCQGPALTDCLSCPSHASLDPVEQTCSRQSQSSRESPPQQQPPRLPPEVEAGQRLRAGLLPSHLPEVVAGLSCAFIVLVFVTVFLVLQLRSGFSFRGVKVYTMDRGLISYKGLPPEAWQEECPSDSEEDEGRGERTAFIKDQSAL
Assay: furin cleavage Z-score vs untreated control; higher = more cleavage, active = 3.5 or more, inactive = 1 or less, 8 variable residues between constant flanks
Conditions: 15 min
Some of the results follow. How many sequences the whole screen found active is unknown.
# if value of furin cleavage Z-score reaches 9, tag MET; if it stays below, tag NOT MET

Enquiry: Decide: furin cleavage Z-score of CANATRAPRSAGNASASA [FS-63] >= 9?
Return: NOT MET

Enquiry: Decide: furin cleavage Z-score of CALSTGCVVIAGNASASA [HC998] >= 9?
Return: NOT MET

Enquiry: Decide: furin cleavage Z-score of CARKTRSARRAGNASASA [FS-2040] >= 9?
Return: MET

Enquiry: Decide: furin cleavage Z-score of CARKTRSHTAAGNASASA [FS-3225] >= 9?
Return: NOT MET

Enquiry: Decide: furin cleavage Z-score of CAGWKRARRAAGNASASA [FS-246] >= 9?
Return: MET

Turning now to a further sequence:
Enquiry: Decide: furin cleavage Z-score of CARATRARRAAGNASASA [FS-82] >= 9?
Return: MET

Origin of the recorded values: the supplement of paper PMC3545927
